// reported protein stability index per item
B1: TRIB1 (parent)
chain: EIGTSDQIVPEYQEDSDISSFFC

variants of: B1; assay: protein stability index of a GFP-peptide fusion (GPS, HEK-293T) (PSI 1-6); higher = more stable; conditions: c terminus: native;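 note: lentivirally expressed fusions sorted by FACS into six bins by GFP to DsRed ratio, PSI derived from sequencing read proportions per bin multiplied by bin number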
Please state the value as a number alone, without comment.

protein stability index measured on V9R = 4.88

protein stability index measured on P10L = 4.87

protein stability index measured on Y12S = 4.19
